tested on: VCaP cells; test: Cellular potency (IC50) in VCaP cells; assay type: cell-based
pIC50: −log10 of the molar value.
Entries and their pIC50
attribute_measured: pIC50

>>> val("C[C@H]1CC2(CCN(c3ccc(CN4CCN(C5CCN(c6ccc7c(c6)C(=O)N(C6CCC(=O)NC6=O)C7=O)CC5)CC4)c(F)c3)CC2)CN1c1ccc(C#N)c(Cl)c1 (stereo partly drawn) [compound 10]")
"> 8.00"
>>> val("C[C@H]1CC2(CCN(c3ccc(CN4CCC(C5CN(c6ccc7c(c6)C(=O)N(C6CCC(=O)NC6=O)C7=O)C5)CC4)c(F)c3)CC2)CN1c1ccc(C#N)c(Cl)c1 (stereo partly drawn) [compound 9]")
"> 8.00"
>>> val("C[C@H]1CC2(CCN(c3ccc(CN4CCN(C5CN(c6ccc7c(c6)C(=O)N(C6CCC(=O)NC6=O)C7=O)C5)CC4)cc3)CC2)CN1c1ccc(C#N)c(Cl)c1 (stereo partly drawn)")
"> 8.00"
>>> val("C[C@H]1CC2(CCN(c3ccc(CN4CCN(C5CCN(c6ccc7c(c6)C(=O)N(C6CCC(=O)NC6=O)C7=O)CC5)CC4)c(F)c3)CC2)CN1c1ccc(C#N)c(Cl)c1 (stereo partly drawn) [compound 42]")
"> 7.00"
>>> val("C[C@H]1CC2(CCN(c3ccc(CN4CCN(C5CN(c6ccc7c(c6)C(=O)N(C6CCC(=O)NC6=O)C7=O)C5)CC4)c(F)c3)CC2)CN1c1ccc(C#N)c(Cl)c1 (stereo partly drawn)")
"> 7.00"
>>> val("C[C@H]1CC2(CCN(c3ccc(CN4CCC(C5CN(c6ccc7c(c6)C(=O)N(C6CCC(=O)NC6=O)C7=O)C5)CC4)c(F)c3)CC2)CN1c1ccc(C#N)c(Cl)c1 (stereo partly drawn) [compound 41]")
"> 7.00"

====

Entries and their pIC50
tested on: VCaP cells; assay: Cellular potency (IC50) in VCaP cells; assay type: cell-based; settings: Homo sapiens, VCaP
pIC50: −log10 of the molar value.
attribute_measured: pIC50

>>> val("C=C1CCC(N2C(=O)c3ccc(N4CCC(CN5CCN(c6ccc(N7CCC8(CC7)C[C@H](C)N(c7ccc(C#N)c(Cl)c7)C8)c(F)c6)CC5)CC4)cc3C2=O)C(=O)N1 (some centres unmarked)")
"> 8.00"
>>> val("C[C@H]1CC2(CCN(c3ccc(N4CCC(N(C)C5CN(c6ccc7c(c6)C(=O)N(C6CCC(=O)NC6=O)C7=O)C5)CC4)nn3)CC2)CN1c1ccc(C#N)c(Cl)c1 (some centres unmarked)")
"> 8.00"
>>> val("C[C@H]1CC2(CCN(c3ccc(OC4CCN(C5CCN(c6ccc7c(c6)C(=O)N(C6CCC(=O)NC6=O)C7=O)CC5)CC4)cc3)CC2)CN1c1ccc(C#N)c(Cl)c1 (some centres unmarked)")
"> 7.00"
>>> val("C[C@H]1CC2(CCN(c3ccc(N4CCN(C5CN(c6ccc7c(c6)C(=O)N(C6CCC(=O)NC6=O)C7=O)C5)CC4)nc3)CC2)CN1c1ccc(C#N)c(Cl)c1 (some centres unmarked)")
"> 8.00"
>>> val("C[C@H]1CC2(CCN(c3ccc(N4CCC(OC5CN(c6ccc7c(c6)C(=O)N(C6CCC(=O)NC6=O)C7=O)C5)CC4)cc3)CC2)CN1c1ccc(C#N)c(Cl)c1 (some centres unmarked)")
"> 8.00"

====

tested on: VCaP cells; experiment: Cellular potency (IC50) in VCaP cells; type: cell-based; details: Homo sapiens, VCaP
Entries and their IC50
attribute_measured: IC50

>>> val("C[C@H]1CC2(CCN(c3ccc(N4CCN(CC5CCN(c6ccc7c(c6)C(=O)N(C6CCC(=O)NC6=O)C7=O)CC5)CC4)cn3)CC2)CN1c1ccc(C#N)c(Cl)c1 (some centres unmarked)")
"< 10 nM"
>>> val("C[C@H]1CC2(CCN(c3ccc(N4CCC(CN5CCN(c6ccc7c(c6)C(=O)N(C6CCC(=O)NC6=O)C7=O)CC5)CC4)cn3)CC2)CN1c1ccc(C#N)c(Cl)c1 (some centres unmarked)")
"< 100 nM"
>>> val("C[C@H]1CC2(CCN(c3ccc(S(=O)(=O)C4CCN(C5CN(c6ccc7c(c6)C(=O)N(C6CCC(=O)NC6=O)C7=O)C5)CC4)cc3)CC2)CN1c1ccc(C#N)c(Cl)c1 (some centres unmarked)")
"< 10 nM"
>>> val("C[C@H]1CC2(CCN(c3ccc(CN4CCN(C5CN(c6ccc7c(c6)C(=O)N(C6CCC(=O)NC6=O)C7=O)C5)CC4)nc3)CC2)CN1c1ccc(C#N)c(Cl)c1 (some centres unmarked)")
"< 10 nM"
>>> val("C[C@H]1CC2(CCN(c3cnc(CN4CCN(C5CN(c6ccc7c(c6)C(=O)N(C6CCC(=O)NC6=O)C7=O)C5)CC4)cn3)CC2)CN1c1ccc(C#N)c(Cl)c1 (some centres unmarked)")
"< 100 nM"
>>> val("C[C@H]1CC2(CCN(c3ccc(CN4CCN(C5CCN(c6ccc7c(c6)C(=O)N(C6CCC(=O)NC6=O)C7=O)CC5)CC4)cn3)CC2)CN1c1ccc(C#N)c(Cl)c1 (some centres unmarked)")
"< 100 nM"
>>> val("C[C@H]1CC2(CCN(c3cnc(N4CCN(CC5CN(c6ccc7c(c6)C(=O)N(C6CCC(=O)NC6=O)C7=O)C5)CC4)cn3)CC2)CN1c1ccc(C#N)c(Cl)c1 (some centres unmarked)")
"< 10 nM"
>>> val("C[C@H]1CC2(CCN(c3ccc(CN4CCC(C5CN(c6ccc7c(c6)C(=O)N(C6CCC(=O)NC6=O)C7=O)C5)CC4)nc3)CC2)CN1c1ccc(C#N)c(Cl)c1 (some centres unmarked)")
"< 10 nM"
>>> val("C=C1CCC(N2C(=O)c3ccc(N4CC(N5CCC(Cc6ccc(N7CCC8(CC7)C[C@H](C)N(c7ccc(C#N)c(Cl)c7)C8)cc6)CC5)C4)cc3C2=O)C(=O)N1 (some centres unmarked)")
"< 10 nM"
>>> val("C[C@H]1CC2(CCN(c3ccc(CN4CCN(C5CN(c6ccc7c(c6)C(=O)N(C6CCC(=O)NC6=O)C7=O)C5)CC4)cn3)CC2)CN1c1ccc(C#N)c(Cl)c1 (some centres unmarked)")
"< 10 nM"
>>> val("C[C@H]1CC2(CCN(c3ccc(OC4CN(C5CCN(c6ccc7c(c6)C(=O)N(C6CCC(=O)NC6=O)C7=O)CC5)C4)nc3)CC2)CN1c1ccc(C#N)c(Cl)c1 (some centres unmarked)")
"< 1000 nM"

====

system: VCaP cells; test: Cellular potency (IC50) in VCaP cells; type: cell-based; details: Homo sapiens, VCaP
attribute_measured: IC50

>>> val("C[C@H]1CC2(CCN(c3ncc(C(=O)N4CCN(C5CN(c6ccc7c(c6)C(=O)N(C6CCC(=O)NC6=O)C7=O)C5)CC4)s3)CC2)CN1c1ccc(C#N)c(Cl)c1 (stereo partly drawn)")
"< 10 nM"
>>> val("C[C@H]1CC2(CCN(c3ccc(OC4CCN(C5CN(c6cc7c(cc6F)C(=O)N(C6CCC(=O)NC6=O)C7=O)C5)CC4)nn3)CC2)CN1c1ccc(C#N)c(Cl)c1 (stereo partly drawn)")
"< 10 nM"
>>> val("C[C@H]1CC2(CCN(c3ccc(C(=O)N4CCN(C5CN(c6ccc7c(c6)C(=O)N(C6CCC(=O)NC6=O)C7=O)C5)CC4)s3)CC2)CN1c1ccc(C#N)c(Cl)c1 (stereo partly drawn)")
"< 100 nM"
>>> val("C[C@H]1CC2(CCN(c3ccc(C4CCN(CC5CN(c6ccc7c(c6)C(=O)N(C6CCC(=O)NC6=O)C7=O)C5)CC4)cc3)CC2)CN1c1ccc(C#N)c(Cl)c1 (stereo partly drawn)")
"< 10 nM"
>>> val("C[C@H]1CC2(CCN(c3ccc(OC4CCN(C5CN(c6ccc7c(c6)C(=O)N(C6CCC(=O)NC6=O)C7=O)C5)CC4)cc3)CC2)CN1c1ccc(C#N)c(Cl)c1 (stereo partly drawn)")
"< 10 nM"
>>> val("C[C@H]1CC2(CCN(c3ccc(S(=O)(=O)N4CCC(N5Cc6cc7c(cc6C5)C(=O)N(C5CCC(=O)NC5=O)C7=O)CC4)cc3)CC2)CN1c1ccc(C#N)c(Cl)c1 (stereo partly drawn)")
"< 10 nM"
>>> val("C=C1CCC(N2C(=O)c3ccc(N4CCC(C5CCN(Cc6ccc(N7CCC8(CC7)C[C@H](C)N(c7ccc(C#N)c(Cl)c7)C8)cc6)CC5)CC4)cc3C2=O)C(=O)N1 (stereo partly drawn)")
"< 100 nM"
>>> val("C[C@H]1CC2(CCN(c3ccc(OC4CN(C5CCN(c6ccc7c(c6)C(=O)N(C6CCC(=O)NC6=O)C7=O)CC5)C4)nn3)CC2)CN1c1ccc(C#N)c(Cl)c1 (stereo partly drawn)")
"< 1000 nM"
>>> val("C[C@H]1CC2(CCN(c3ccc(CN4CCC(N5CCN(c6cc7c(cc6F)C(=O)N(C6CCC(=O)NC6=O)C7=O)CC5)CC4)cn3)CC2)CN1c1ccc(C#N)c(Cl)c1 (stereo partly drawn)")
"< 10 nM"
>>> val("C[C@H]1CC2(CCN(c3ccc(S(=O)(=O)C4CCN(CC5CN(c6ccc7c(c6)C(=O)N(C6CCC(=O)NC6=O)C7=O)C5)CC4)cc3)CC2)CN1c1ccc(C#N)c(Cl)c1 (stereo partly drawn)")
"< 10 nM"
>>> val("C[C@H]1CC2(CCN(c3ccc(N4CCC(OC5CN(c6ccc7c(c6)C(=O)N(C6CCC(=O)NC6=O)C7=O)C5)CC4)nc3)CC2)CN1c1ccc(C#N)c(Cl)c1 (stereo partly drawn)")
"< 10 nM"
>>> val("C[C@H]1CC2(CCN(c3ccc(OC4CCN(C5CN(c6cc7c(cc6F)C(=O)N(C6CCC(=O)NC6=O)C7=O)C5)CC4)cc3)CC2)CN1c1ccc(C#N)c(Cl)c1 (stereo partly drawn)")
"< 10 nM"
>>> val("C[C@H]1CC2(CCN(c3ccc(S(=O)(=O)C4CCN(C(=O)CN5Cc6cc7c(cc6C5)C(=O)N(C5CCC(=O)NC5=O)C7=O)CC4)cc3)CC2)CN1c1ccc(C#N)c(Cl)c1 (stereo partly drawn)")
"< 100 nM"
>>> val("C[C@H]1CC2(CCN(c3ccc(N4CCC(NC5CN(c6ccc7c(c6)C(=O)N(C6CCC(=O)NC6=O)C7=O)C5)CC4)cc3)CC2)CN1c1ccc(C#N)c(Cl)c1 (stereo partly drawn)")
"< 10 nM"
>>> val("C=C1CCC(N2C(=O)c3ccc(N4CCC(N5CCC(Cc6ccc(N7CCC8(CC7)C[C@H](C)N(c7ccc(C#N)c(Cl)c7)C8)cc6)CC5)CC4)cc3C2=O)C(=O)N1 (stereo partly drawn)")
"< 10 nM"
>>> val("C[C@H]1CC2(CCN(c3ccc(N4CCN(CC5CCN(c6ccc7c(c6)C(=O)N(C6CCC(=O)NC6=O)C7=O)CC5)CC4)cc3)CC2)CN1c1ccc(C#N)c(Cl)c1 (stereo partly drawn)")
"< 10 nM"
>>> val("C[C@H]1CC2(CCN(c3ccc(S(=O)(=O)C4CCN(C5CCN(c6ccc7c(c6)C(=O)N(C6CCC(=O)NC6=O)C7=O)CC5)CC4)cc3)CC2)CN1c1ccc(C#N)c(Cl)c1 (stereo partly drawn)")
"< 10 nM"
>>> val("C[C@H]1CC2(CCN(c3ccc(N4CCN(CC5CN(c6ccc7c(c6)C(=O)N(C6CCC(=O)NC6=O)C7=O)C5)CC4)cc3F)CC2)CN1c1ccc(C#N)c(Cl)c1 (stereo partly drawn)")
"< 10 nM"
>>> val("C[C@H]1CC2(CCN(c3ccc(OC4CCN(C5CN(c6ccc7c(c6)C(=O)N(C6CCC(=O)NC6=O)C7=O)C5)CC4)cn3)CC2)CN1c1ccc(C#N)c(Cl)c1 (stereo partly drawn)")
"< 10 nM"
>>> val("C=C1CCC(N2C(=O)c3ccc(N4CCC(N5CCN(Cc6ccc(N7CCC8(CC7)C[C@H](C)N(c7ccc(C#N)c(Cl)c7)C8)cc6)CC5)CC4)cc3C2=O)C(=O)N1 (stereo partly drawn)")
"< 10 nM"
>>> val("C[C@H]1CC2(CCN(c3ccc(CC4CCN(C5CN(c6ccc7c(c6)C(=O)N(C6CCC(=O)NC6=O)C7=O)C5)CC4)nc3)CC2)CN1c1ccc(C#N)c(Cl)c1 (stereo partly drawn)")
"< 10 nM"
